# target-of-assay: OCT2 (Homo sapiens, UniProt O15244)
# Sequence (O15244 1-555): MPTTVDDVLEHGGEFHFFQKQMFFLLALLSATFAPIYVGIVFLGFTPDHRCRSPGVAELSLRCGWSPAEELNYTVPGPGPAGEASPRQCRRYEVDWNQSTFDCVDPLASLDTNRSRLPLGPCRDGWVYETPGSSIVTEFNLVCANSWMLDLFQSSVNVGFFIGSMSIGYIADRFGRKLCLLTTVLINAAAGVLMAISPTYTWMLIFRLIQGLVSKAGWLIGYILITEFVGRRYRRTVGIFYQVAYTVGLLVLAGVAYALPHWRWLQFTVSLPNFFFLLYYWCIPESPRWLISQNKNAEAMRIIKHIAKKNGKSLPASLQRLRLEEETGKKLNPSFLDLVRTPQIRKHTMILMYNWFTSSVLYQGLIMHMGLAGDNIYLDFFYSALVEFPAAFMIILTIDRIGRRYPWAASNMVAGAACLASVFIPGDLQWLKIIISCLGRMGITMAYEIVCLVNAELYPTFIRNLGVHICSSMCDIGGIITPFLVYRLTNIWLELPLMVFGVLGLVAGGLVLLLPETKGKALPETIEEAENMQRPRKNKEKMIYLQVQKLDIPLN
# assay-name: in vitro
# condition-set: human
# Excerpt: Fully confluent MDCK cell monolayers were transfected with either cDNA plasmids encoding the human transporter to be tested or a GFP control. […] The cells were then washed with ice-cold PBS and lysed with 50:50 acetonitrile:H2O. Intracellular content of the substrate was quantified by LC/MS/MS or a MicroBeta radiometric plate reader.
Quick rule for you: inhibition at 30 min, 5 μM at 80% or higher means rule met, lower means rule not met.

Please check the record CN/C(=N/CCSCc1nc[nH]c1C)NC#N [Cimetidine] and state if its inhibition at 30 min, 5 μM is at or above 80%.
rule not met

Entry to check: C[N+]1(C)[C@@H]2C[C@@H](OC(=O)C(O)(c3cccs3)c3cccs3)C[C@H]1[C@@H]1O[C@@H]12 [Tiotropium•Br]
rule met

Next: NC(=O)OCC(O)COc1ccc(Cl)cc1 (stereo not shown) [Chlorphenesin Carbamate]
rule not met

Here is the next molecule: CCNC(=O)[C@@H]1CCCN1C(=O)[C@H](CCCNC(=N)N)NC(=O)[C@H](CC(C)C)NC(=O)[C@@H](CC(C)C)NC(=O)[C@H](Cc1ccc(O)cc1)NC(=O)[C@H](CO)NC(=O)[C@H](Cc1c[nH]c2ccccc12)NC(=O)[C@H](Cc1c[nH]cn1)NC(=O)[C@@H]1CCC(=O)N1 [Leuprolide]
rule not met

Now try NC1=NCC2c3ccccc3Cc3ccccc3N12 (stereo not shown) [Epinastine] .
rule met

Again, but for N=C(N)c1ccc(OCCCCCOc2ccc(C(=N)N)cc2)cc1 [Pentamidine]
rule met

Similarly, Cc1ccc(NC(=O)c2ccc(CN3CCN(C)CC3)cc2)cc1Nc1nccc(-c2cccnc2)n1 [Imatinib] ?
rule not met

What do you get for COc1cc(OC)c(C(=O)CCCN2CCCC2)c(OC)c1 [Buflomedil] ?
rule met

Param item: OCC(O)COc1ccc(Cl)cc1 (stereo not shown) [Chlorphenesin]
rule not met

# repeat for Clc1ccc(COC(Cn2ccnc2)c2ccc(Cl)cc2Cl)c(Cl)c1 (stereo not shown) [Miconazole]
rule not met

###

# assay-name: Buflomedil plasma concentration in Balb/C mice after IV and IP administration
# Assay type: in vivo
# condition-set: male, mouse, ip, Balb/C mice, read-out: estimated bioavailability of IP administration
experimental-endpoint: bioavailability

Which bioavailability value belongs to COc1cc(OC)c(C(=O)CCCN2CCCC2)c(OC)c1 [Buflomedil] ?
40 to 60%

# credit: patent US11197862B2
